These entries and their values trace back to patent US9309222B2.

System: human RORγt ligand binding domain (RORγt LBD) (Homo sapiens)
Construct: His-tag (N); TurboTEV protease cleavage site (ENLYFQG) (N)
Method Notes: RORγt ThermoFluor assay (thermal shift, ligand binding affinity)
Condition Parameters: estimated from concentration response of thermal shift
Output Yes for records whose Kd is lower than 40 nM, No for records at or above 40 nM.

I wonder whether CCOc1nc2ccc(C(O)(c3ccncc3)c3cncn3C)cc2c(N(C)C)c1-c1ccccc1 (centres unmarked) has Kd below 40 nM. Can you tell?
No

I wonder whether `CN(C)c1nc2ccc(C(O)(c3cccnc3)c3cccnc3)cc2c(Cl)c1-c1ccccc1` has Kd below 40 nM. Can you tell?
Yes

I wonder whether Cn1ccnc1C(O)(c1ccc2nc(Cl)c(-c3ccccc3)c(Cl)c2c1)c1cnccn1 (centres unmarked) has Kd below 40 nM. Can you tell?
No

I wonder whether N#Cc1nc2ccc(C(O)(c3ccc(C(N)=O)nc3)c3cccc(Cl)c3)cc2c(C#N)c1-c1ccccc1 (centres unmarked) has Kd below 40 nM. Can you tell?
No

I wonder whether OC(c1ccc(Cl)cc1)(c1cccnc1)c1ccc2nc(Cl)c(-c3ccccc3)c(Cl)c2c1 (centres unmarked) has Kd below 40 nM. Can you tell?
No

I wonder whether CN(C)c1c(-c2ccccc2)c(Cl)nc2ccc(C(O)(c3cccnc3)c3cncn3C)cc12 (centres unmarked) has Kd below 40 nM. Can you tell?
No

I wonder whether COc1ccc(C(O)(c2ccc3nc(Cl)c(-c4ccccc4)c(Cl)c3c2)c2c(C)noc2C)cn1 (centres unmarked) has Kd below 40 nM. Can you tell?
Yes

I wonder whether Cc1nn(C)c(C)c1C(O)(c1ccccc1)c1ccc2nc(Cl)c(-c3ccccc3)c(Cl)c2c1 (centres unmarked) has Kd below 40 nM. Can you tell?
No

----------
Known RORγt reporter Assay, % inhibition @ 6 μM of a selection of molecules
System: human RORγt LBD (Homo sapiens, UniProt P51449)
Construct: expressed in transfected cells
Sequence (P51449 258-518): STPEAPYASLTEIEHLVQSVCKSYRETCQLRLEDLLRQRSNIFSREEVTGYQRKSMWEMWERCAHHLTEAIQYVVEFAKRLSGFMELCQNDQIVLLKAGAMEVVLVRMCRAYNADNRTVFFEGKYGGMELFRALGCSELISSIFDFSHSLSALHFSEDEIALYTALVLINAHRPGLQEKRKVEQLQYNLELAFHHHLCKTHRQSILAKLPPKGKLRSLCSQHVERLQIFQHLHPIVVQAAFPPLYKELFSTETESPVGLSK
Method Notes: RORγt reporter assay (GAL4-RORγt LBD luciferase in HEK293T cells)
Type: cell-based
Condition Parameters: HEK293T cells, 6 μM compound; 6 µM
Numbers only here, please. The scale is %.

Worked examples follow.
Cn1cncc1C(O)(c1ccc(Cl)cc1)c1ccc2nc(Cl)c(-c3ccccc3Cl)c(Cl)c2c1 (single isomer, unassigned) [Example 153d]; 75
COc1nc2c(C)cc(C(O)(c3ccc(C(F)(F)F)nc3)c3cncn3C)cc2c(C#N)c1-c1cccc(F)c1 (single isomer, unassigned) [Example 179c]; 96

Find the measured RORγt reporter Assay, % inhibition @ 6 μM of COc1nc2c(C)cc(C(O)(c3ccc(F)cc3)c3cncn3C)cc2c(Cl)c1-c1cccc(F)c1 (single isomer, unassigned) [Example 178b] and report it.
72
